Literature survey of IC50 (system: Beta-secretase 1 (Homo sapiens, UniProt P56817)).
parameter: IC50 (µM)

CC(C)(F)COc1cc(F)c2c(c1)[C@@]1(CCOC(N)=N1)c1cc(-c3cccnc3)ccc1O2
0.941
NC1=N[C@@]2(CCO1)c1cc(-c3cccnc3F)ccc1Oc1cnc(C3CCOCC3)cc12
0.0132
[2H]C1([2H])OC(N)=NC12c1cc(-c3cncnc3)ccc1C[C@@]21CC[C@H](O)[C@@H](C)C1 (stereo partly shown)
1.46
CCc1ccc2c(c1)CCC[C@]21CNC[C@H]1C(=O)N1CCC(c2ccccc2)CC1
19
CC1(COc2cc(F)c3c(c2)[C@@]2(CCOC(N)=N2)c2cc(-c4cccnc4)ccc2O3)COC1
2.78
CC(C)(C)C#Cc1cnc2c(c1)[C@]1(COCC(N)=N1)c1cc(-c3cccnc3F)ccc1O2
0.0007

(a) NC1=N[C@]2(CCS1)c1cc(-c3cccnc3F)ccc1Oc1cnc(Cl)cc12
(b) C[C@H]1C[C@H]2[C@@H](CF)SC(N)=N[C@@]2(c2cc(CNCC(F)(F)F)c(F)cc2F)CO1
Smaller IC50 value, a vs b ? Please respond with the label that marks your chosen entry.
b

(I) Cc1cc(C#N)cnc1C(=O)Nc1csc([C@]23COC4(CCC4)C[C@H]2COC(N)=N3)n1
(II) NC1=NC2(c3cc(Br)ccc3Oc3cnc(Cl)cc32)c2ccncc21 (stereo not shown)
Smaller IC50 value, I vs II ? Please respond with the label that marks your chosen entry.
I
(I: 0.185 µM, II: 9.09 µM)

====

Literature survey of pIC50 (system: UniProtKB P56817).
pIC50: −log10 of the molar value.
parameter: pIC50

Please review the following examples before continuing.
CC(C)(C)COc1cc2c(c(F)n1)Oc1ccc(-c3cccnc3F)cc1[C@@]21COCC(N)=N1
9.22
COc1ccc(C2(c3cn(C)c(N)n3)CCCCC2)cc1
4.57
[2H]C1([2H])OC(N)=NC12c1cc(-c3cncnc3)ccc1C[C@]21CC[C@@H](O)[C@H](C)C1 (stereo partly shown)
6.47
NC1=N[C@@]2(COC1)c1cc(Br)ccc1Oc1c2cc(N2CCC(F)(F)CC2)nc1F
7.76
NC1=N[C@]2(CCO1)c1cc(-c3cccnc3F)ccc1Oc1c(F)cc(N3CCC(F)(F)CC3)cc12
6.02
NC1=N[C@@]2(COC1)c1cc(-c3cccnc3)ccc1Oc1c(F)cc(C3=CCCOC3)cc12
9.52

(I) C[C@@H]1COC(N)=N[C@]12c1cc(-c3cccnc3F)ccc1Oc1cnc(C3=CCCOC3)cc12
(II) CC(C)(C)COc1cc(F)c2c(c1)C1(COCCC(N)=N1)c1cc(-c3cccnc3F)ccc1O2 (racemic)
Sorting by pIC50 in descending order, would I or II appear first? Please respond with the label that marks your chosen entry.
II

====

Literature survey of IC50 (system: Beta-secretase 1 (Homo sapiens)).
parameter: IC50 (nM)

Please review the following examples before continuing.
COc1cc(F)c2c(c1)[C@@]1(CCOC(N)=N1)c1cc(-c3cccnc3F)ccc1O2
4220
Cc1nc2c(Nc3ccc4c(c3)[C@@]3(CCOC(N)=N3)c3cc(C5=CCOCC5)ncc3O4)nccc2s1
5.3
NC1=NC2(c3ccccc3O1)c1cc(-c3cccnc3F)ccc1Oc1cnc(C3=CCCOC3)cc12 (racemic)
2
Cc1cc(Br)cnc1C(=O)Nc1ccc2c(c1)[C@@]1(CCSC(N)=N1)c1cc(C3=CCOCC3)nc(F)c1O2
1.4

(1) NC1=NC2(c3cc(-c4cccnc4F)ccc3Oc3c2cc(Cl)nc3F)c2ccccc21 (stereo not shown)
(2) CC(C)Oc1cc2c(cn1)Oc1ccc(-c3cccnc3F)cc1[C@@]21COCC(N)=N1
Smaller IC50 value, 1 vs 2 ? Please respond with the label that marks your chosen entry.
2

(1) NC1=N[C@@]2(CCO1)c1cc(-c3cccnc3F)ccc1Oc1c(F)cc(-c3ccncc3)cc12
(2) NC1=N[C@]2(CCO1)c1cc(-c3cncc(F)c3)ccc1Oc1c2cc(C2=CCOCC2)nc1F
(3) O=C([C@@H]1CNC[C@]12CCc1ccccc12)N1CC[C@@H](c2ccccc2)C[C@H]1c1ccccc1
Arrange the 3 compounds by rising IC50, starting with the smallest. List the labels in the requested order.
1, 3, 2

(a) COc1cc(C#N)cc(-c2ccc3c(c2)C2(COC(N)=N2)C(C2CCOCC2)C3)c1 (stereo not shown)
(b) COc1ccccc1[C@H]1C[C@H]2CSC(N)=N[C@@]2(c2ccc(F)cc2F)CO1
Smaller IC50 value, a vs b ? Please respond with the label that marks your chosen entry.
b
